The origin of these recorded values is patent US20230286973A1.

# Lookup of reported IC50 keyed by entry
# Test system: TNFα-FL/Gaussia Luciferase
# ASSAY_NOTES: Dox Induced TNFα-FL-Gluc Assay
# Format: cell-based
# COND: 24 hr Dox induction; 293FRT/TO cells; read-out: 24 hr Dox Inducible TNFaFLGluc 293FRT/TO: Mean IC50
QUANTITY_MEASURED: IC50 (nM)

COMPOUND	TARGET_ENTITY	QUANTITY_MEASURED	RESULT_OPERATOR	TEST_VALUE
C[C@H](N)c1ccc(N2CCC[C@@H]2c2csc(NC(=O)c3cccn3Cc3ccnc(F)c3)n2)cc1	TNFα-FL/Gaussia Luciferase	IC50	=	2800
CNC(=O)c1ccc(N2CCC[C@@H]2c2csc(NC(=O)c3cccn3Cc3ccncc3)n2)cc1	TNFα-FL/Gaussia Luciferase	IC50	=	178
CC(=O)N1CCC(Oc2ccc(N3CCC[C@@H]3c3csc(NC(=O)c4cccn4Cc4ccnc(F)c4)n3)cc2)CC1	TNFα-FL/Gaussia Luciferase	IC50	=	251
C[C@@H](O)c1ccc(N2CCC[C@@H]2c2csc(NC(=O)c3cccn3Cc3ccnc(F)c3)n2)cc1	TNFα-FL/Gaussia Luciferase	IC50	=	94.5
CC(=O)N1CCC(Oc2ccc(N3CCC[C@@H]3c3csc(NC(=O)c4cccn4Cc4ccnc(F)c4)n3)cc2)C(F)C1 (stereo partly shown)	TNFα-FL/Gaussia Luciferase	IC50	=	283
NC(=O)CCn1cnc(/C=C/c2csc(NC(=O)c3cccn3Cc3ccnc(F)c3)n2)c1	TNFα-FL/Gaussia Luciferase	IC50	>	25000
CN(C)C(=O)c1ccc(N2CCC[C@@H]2c2csc(NC(=O)c3cccn3Cc3ccncc3)n2)cc1	TNFα-FL/Gaussia Luciferase	IC50	=	1020
